# System Name: T1, biotin-labeled human CD137 fused to human IgG1 Fc fragment (human, biotin-labeled);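 note: bead ELISA on streptavidin-coated magnetic beads, with the signal read as well fluorescence 2 min after APS-5 addition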
# T1 construct: Immobilised on streptavidin beads through biotin; also called human CD137-Fc; biotin-human CD137-Fc
# Test Name: competitive bead ELISA, IgG on biotin-human CD137-Fc, competitor free CD3 epsilon peptide 125 pmol/well
Kindly state ELISA signal, free CD3e 125 pmol/well for each of the entries shown.
Respond with the number and no other words.

Record summary for dBBDu121 (antibody, human IgG1, V domains shown, IgG: VH joined to human IgG1 CH1-Fc, GLS3000 as light chain; also called DXDU01_3_#094; DXDU01_3 #094) VH: QVQLVESGGGLVQPGRSLRLSCAASGFTFSNAWMHWVRQAPGKGLEWVAQIKDKGNAYAAYYAPSVKGRFTISRDDSKNSIYLQMNSLKTEDTAVYYCHYVHYASAAGGLPGFGVDAWGQGTTVTVSS VL: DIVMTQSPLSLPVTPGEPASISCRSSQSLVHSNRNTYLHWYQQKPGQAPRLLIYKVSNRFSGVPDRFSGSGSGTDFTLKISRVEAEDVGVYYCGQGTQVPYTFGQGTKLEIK : reported ELISA signal, free CD3e 125 pmol/well = 1830

Lab book: ELISA signal, free CD3e 125 pmol/well of dBBDu196 (antibody, human IgG1, V domains shown, IgG: VH joined to human IgG1 CH1-Fc, GLS3000 as light chain) VH: QVQLVESGGGLVQPGRSLRLSCAASGFTFSNAWMHWVRQAPGKGLEWVAQIKDRGNAYNAYYAESVKGRFTISRDDSKNSIYLQMNSLKTEDTAVYYCHYVHYASASTVLPAFGVDAWGQGTTVTVSS VL: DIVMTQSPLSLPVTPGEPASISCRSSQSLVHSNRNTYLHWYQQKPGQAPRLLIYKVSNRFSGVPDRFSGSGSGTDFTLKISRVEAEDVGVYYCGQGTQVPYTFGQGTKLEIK noted as 2220

# ELISA signal, free CD3e 125 pmol/well (binder: dBBDu222 (antibody, human IgG1, V domains shown, IgG: VH joined to human IgG1 CH1-Fc, GLS3000 as light chain) VH: QVQLVESGGGLVQPGRSLRLSCAASGFTISSAWMHWVRQAPGKGLEWVAQIKDRANGYAAYYAPSVKGRFTISRDDSKNSIYLQMNSLKTEDTAVYYCRYVHYATAYDGFYGFGVDAWGQGTTVTVSS VL: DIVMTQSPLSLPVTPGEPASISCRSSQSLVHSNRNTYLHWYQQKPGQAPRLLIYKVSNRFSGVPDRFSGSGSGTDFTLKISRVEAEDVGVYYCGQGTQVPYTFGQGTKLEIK ) is 3240

Origin of values: patent US20240270846A1
